// data source = patent US20240317847A1

- measurement.target: T1, murine IL-11 (mouse, UniProt P47873 22-199)
- T1 construct: bought from Invigate; also called mIL-11; mIL11
- T1 sequence: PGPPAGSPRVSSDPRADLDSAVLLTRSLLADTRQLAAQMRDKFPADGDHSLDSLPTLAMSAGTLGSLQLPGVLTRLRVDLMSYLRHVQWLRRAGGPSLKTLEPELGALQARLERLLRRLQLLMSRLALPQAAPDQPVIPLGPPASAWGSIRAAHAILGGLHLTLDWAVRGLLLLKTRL
- procedure.summary: SPR, antibody captured, IL-11 as analyte
readout.type: Kd (nM)

1. TPP-19845 (antibody, V domains shown) VH: EVQLLESGGGLVQPGGSLRLSCAASGFTFSSYGMHWVRQAPGKGLEWVSVISYDGSYKYYADSVKGRFTISRDNSKNTLYLQMNSLRAEDTAVYYCAAGVPDYWGQGTLVTVSS VL: QSVLTQPPSASGTPGQRVTISCTGSSSNIGAGYDVYWYQQLPGTAPKLLIYSNNERPSGVPDRFSGSKSGTSASLAISGLRSEDEADYYCAAWDDSLNGPVFGGGTKLTVL :: 5
2. TPP-19850 (antibody, V domains shown) VH: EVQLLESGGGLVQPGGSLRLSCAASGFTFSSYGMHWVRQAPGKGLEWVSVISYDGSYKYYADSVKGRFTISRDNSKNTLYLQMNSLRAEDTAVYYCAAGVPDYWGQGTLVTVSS VL: QSVLTQPPSASGTPGQRVTISCTGSSSNIGAGYDVHWYQQLPGTAPKLLIYSNNERPSGVPDRFSGSKSGTSASLAISGLRSEDEADYYCAAWDDSLSGPVFGGGTKLTVL :: 1.6
